tgt: Adenosine A2 receptor (Rattus norvegicus, UniProt P29276+P30543)
method: Inhibition of [3H]NECA binding to Adenosine A2 receptor in rat brain striatum
Format: tissue-based
recorded_metric: log10(Ki) (log10 of the value in µM)

CCCOC1=Nc2c(ncn2-c2ccccc2)C2=N[C@H](Cc3ccccc3)CN12
1.86
CCCOc1nc(N[C@H](CO)Cc2ccccc2)c2cnn(-c3ccccc3)c2n1 (stereo in doubt; 10b)
-0.43
CCCOC1=Nc2c(cnn2-c2ccccc2)C2=N[C@@H](C)[C@H](c3ccccc3)N12
1.65
CCCOc1nc(N[C@@H](C)[C@H](O)c2ccccc2)c2cnn(-c3ccccc3)c2n1
0.15
CCCOC1=Nc2c(ncn2-c2ccccc2)C2=N[C@@H](Cc3ccccc3)CN12
0.20
CCCOc1nc(N[C@H](CO)Cc2ccccc2)c2cnn(-c3ccccc3)c2n1 (stereo in doubt; 10a)
0.62
CCCOC1=Nc2c(cnn2-c2ccccc2)C2=N[C@H](C)[C@@H](c3ccccc3)N12
1.04
